- ASSAY SYSTEM: Human VPS34 (Homo sapiens, UniProt Q8NEB9)
- Construct: GST (N); host or cells: SF9 insect cells (baculovirus)
- Sequence (Q8NEB9 whole entry): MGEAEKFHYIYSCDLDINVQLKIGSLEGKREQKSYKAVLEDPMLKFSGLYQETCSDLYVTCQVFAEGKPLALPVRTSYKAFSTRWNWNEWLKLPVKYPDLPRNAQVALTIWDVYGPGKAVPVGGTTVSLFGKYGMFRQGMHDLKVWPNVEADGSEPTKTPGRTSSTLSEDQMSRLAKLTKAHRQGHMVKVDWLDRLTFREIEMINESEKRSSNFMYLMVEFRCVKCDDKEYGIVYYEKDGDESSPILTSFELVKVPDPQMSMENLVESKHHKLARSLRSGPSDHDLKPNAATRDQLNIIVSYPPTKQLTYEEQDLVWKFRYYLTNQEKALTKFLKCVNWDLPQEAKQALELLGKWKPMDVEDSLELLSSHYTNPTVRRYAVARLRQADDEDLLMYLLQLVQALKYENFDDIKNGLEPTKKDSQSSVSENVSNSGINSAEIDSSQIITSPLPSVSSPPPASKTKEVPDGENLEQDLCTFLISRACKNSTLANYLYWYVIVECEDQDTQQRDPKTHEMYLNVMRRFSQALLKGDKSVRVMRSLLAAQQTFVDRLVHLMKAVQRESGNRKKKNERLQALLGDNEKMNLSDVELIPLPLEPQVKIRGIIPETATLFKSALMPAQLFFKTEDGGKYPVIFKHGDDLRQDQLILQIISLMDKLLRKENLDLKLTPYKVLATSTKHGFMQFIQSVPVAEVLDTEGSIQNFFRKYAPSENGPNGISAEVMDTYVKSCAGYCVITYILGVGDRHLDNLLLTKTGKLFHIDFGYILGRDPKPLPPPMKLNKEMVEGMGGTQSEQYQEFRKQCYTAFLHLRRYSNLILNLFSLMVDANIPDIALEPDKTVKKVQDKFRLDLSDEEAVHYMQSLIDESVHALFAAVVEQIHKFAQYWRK
- EXPERIMENT NOTES: Human VPS34 Enzyme Assay (Adapta TR-FRET)
- Type: biochemical
- RECORDED CONDITIONS: compound at 1.111 μM; read-out: Average VPS34 % INH @ 1.111 μM
Would you please tag the item label 1 when its inhibition at 1.111 µM is 90% or above, and label 0 when it is below?

| MOL SMILES | ASSAY SYSTEM | ANSWER LABEL |
| --- | --- | --- |
| Cc1cnc(NC(=O)C2CC2)cc1-c1nc(-c2nnc[nH]2)c(-c2ccccc2Cl)o1 | Human VPS34 (Homo sapiens, UniProt Q8NEB9) | label 1 |
| CC(=O)Nc1cc(-c2nc(C(=O)NCc3cccnc3)c(-c3ccccc3Cl)o2)c(C)cn1 | Human VPS34 (Homo sapiens, UniProt Q8NEB9) | label 0 |
| CC(=O)Nc1cc(-c2cc(C(=O)NCCOCCO)c(-c3ccccc3Cl)o2)c(C)cn1 | Human VPS34 (Homo sapiens, UniProt Q8NEB9) | label 1 |
| CC(=O)Nc1cc(-c2nc(C(=O)NCCOCCO)c(-c3ccccc3Cl)o2)c(C)cn1 | Human VPS34 (Homo sapiens, UniProt Q8NEB9) | label 0 |
| O=C(Cn1cccn1)Nc1cc(-c2nc(-c3nnc[nH]3)c(-c3ccccc3Cl)o2)ccn1 | Human VPS34 (Homo sapiens, UniProt Q8NEB9) | label 1 |

Continue with the compound presented below.
Query: Item CC(=O)Nc1cc(-c2nc(-c3ccccc3Cl)c(-c3ncco3)o2)c(C)cn1 with inhibition at 1.111 µM of 90% or above?
Result: label 1
